Every entry's value here was drawn from PubChem BioAssay (NCI).

test system: RPMI-8226 leukemia; assay: NCI tumour cell line growth inhibition, 48 h
Hi there, I'd appreciate the recorded TGI for every entry that follows.

[
  {
    "MOLECULE": "O=C(O)CCC(NC(=O)c1ccc(CNc2nc3ccccc3nc2C(=O)O)cc1)C(=O)O (stereo unspecified)",
    "TARGET_SYSTEM": "RPMI-8226 leukemia",
    "TGI": "> 100 µM"
  },
  {
    "MOLECULE": "O=C(O)c1nccnc1C(=O)O",
    "TARGET_SYSTEM": "RPMI-8226 leukemia",
    "TGI": "> 100 µM"
  },
  {
    "MOLECULE": "COc1ncnc2c1cnn2Cc1cn(CCCCO)nn1",
    "TARGET_SYSTEM": "RPMI-8226 leukemia",
    "TGI": "> 100 µM"
  },
  {
    "MOLECULE": "C=C1NC(=O)C(CC(C(=O)C(=O)Nc2c(C)cccc2C(C)(C)C)C(=O)c2ccc3ccccc3c2)C(=O)N1 (stereo unspecified)",
    "TARGET_SYSTEM": "RPMI-8226 leukemia",
    "TGI": "> 100 µM"
  },
  {
    "MOLECULE": "O=C(O)CCSC(=S)Nc1cccc(F)c1",
    "TARGET_SYSTEM": "RPMI-8226 leukemia",
    "TGI": "> 100 µM"
  },
  {
    "MOLECULE": "Cn1nc(-c2ccccc2)c(C(=O)/C=C/c2ccc(F)cc2)c(N2CCOCC2)c1=O",
    "TARGET_SYSTEM": "RPMI-8226 leukemia",
    "TGI": "23.2 µM"
  },
  {
    "MOLECULE": "CC1=NN(C(=O)c2ccncc2)C(=O)C1N=Nc1ccc2ccccc2c1 (stereo unspecified)",
    "TARGET_SYSTEM": "RPMI-8226 leukemia",
    "TGI": "> 100 µM"
  },
  {
    "MOLECULE": "O=[N+]([O-])c1nccn1CCCNCCCn1ccnc1[N+](=O)[O-]",
    "TARGET_SYSTEM": "RPMI-8226 leukemia",
    "TGI": "> 100 µM"
  }
]

Field: TGI. Fill in for each record below.
1. CN(O)C(=S)c1ccccc1
2. O=C(O)CCSC(=O)Nc1ccccc1Cl
3. O=C(Nc1ccc2c(c1)OCO2)C(=O)c1c[nH]c2cc(F)ccc12

// result
1. 1.68 µM
2. > 100 µM
3. > 100 µM

###

system: MDA-MB-231 breast; assay: NCI tumour cell line growth inhibition, 48 h
Task for the reader: assign each of the following compounds its reported TGI.

// for each compound in input: emit TGI
1. NC(=O)C(Nc1ccc(Cl)cc1)c1cc2cc(Br)ccc2nc1Cl (stereo unspecified)
2. O=[N+]([O-])c1nccn1CCCNCCCn1ccnc1[N+](=O)[O-]
3. O=C(NNC(=S)NCc1ccccc1)C12CC3CC(CC(C3)C1)C2
4. CN(C)C(=O)C1CCN(Cc2c[nH]c3ccccc23)CC1

// result
["> 50 µM", "> 100 µM", "> 100 µM", "> 100 µM"]

# batch size: 2; output TGI per entry
1. CN1C(=O)C23CCCCC2CC1(c1ccccc1)S3 (stereo unspecified)
2. COC(=O)[C@@H]1Cc2cc(O)c(O)cc2C2(CCN(C)CC2)O1

// result
1: > 100 µM; 2: > 10 µM
